- Tested on: Rattus norvegicus
- Experiment Notes: The total 18 hr urinary excretion of the unchanged form of compound in urine was reported as log (percent X 10) of the administered dose by HPLC technique
- Format: ADME, organism-based
- Run Conditions: in vivo
Listed here: items and their measured log(10 × % of dose excreted unchanged in urine).
Answer as a number with no unit attached.

Recorded results for 3 molecules are shown here.
# Molecule, Observed
rows = [
    ("Cn1c([N+](=O)[O-])cnc1C=O", 2.023),
    ("Cc1ncc([N+](=O)[O-])n1CCO [METRONIDAZOLE]", 2.407),
    ("COC(=S)NCCn1c([N+](=O)[O-])cnc1C [CARNIDAZOLE]", 1.819),
]

So, CC(C)c1ncc([N+](=O)[O-])n1C [IPRONIDAZOLE] ? Its log(10 × % of dose excreted unchanged in urine) was 1.398

Entry Cc1ncc([N+](=O)[O-])n1CC(O)CCl (centres undefined) [ORNIDAZOLE] , log(10 × % of dose excreted unchanged in urine) reported as 2.068

Notebook: Cn1c([N+](=O)[O-])cnc1/C=C/c1ccnc(N)n1 [AZANIDAZOLE] , log(10 × % of dose excreted unchanged in urine) read as 2.054

Looking up Cc1ncc([N+](=O)[O-])n1CC(=O)Nc1ncccn1 , I see its log(10 × % of dose excreted unchanged in urine) listed as 2.549

Entry under test: CCS(=O)(=O)CCn1c([N+](=O)[O-])cnc1C [TINIDAZOLE] . Its log(10 × % of dose excreted unchanged in urine) was 2.436

For record Cc1ncc([N+](=O)[O-])n1CCS(C)(=O)=O the listed log(10 × % of dose excreted unchanged in urine) is 2.394

====

- Experiment Notes: The amount of the unchanged form of compound detected in the urine samples collected at 0-18 hr after the treatment by HPLC technique
- Type: ADME, organism-based
- Run Conditions: rat, read-out: Amount excreted
Assay Readout: dose excreted (%)
Answer in %, number only, no unit symbol.

Example compounds with recorded dose excreted:
# Compound, Value Unit, dose excreted
data = [
    ("Cn1c([N+](=O)[O-])cnc1C=O", "%", 10.4),
    ("Cc1ncc([N+](=O)[O-])n1CC(O)CCl (stereo not drawn)", "%", 11.7),
    ("Cn1c([N+](=O)[O-])cnc1/C=C/c1ccnc(N)n1", "%", 11.3),
    ("CC(C)c1ncc([N+](=O)[O-])n1C", "%", 2.5),
    ("COC(=S)NCCn1c([N+](=O)[O-])cnc1C", "%", 6.5),
]

Consider Cc1ncc([N+](=O)[O-])n1CC(=O)Nc1ncccn1 . Its measured dose excreted is 35.4

Entry CCS(=O)(=O)CCn1c([N+](=O)[O-])cnc1C , dose excreted reported as 27.3

Form: compound = Cc1ncc([N+](=O)[O-])n1CCO ; dose excreted = 25

====

- Experiment Notes: The octanol/water partition coefficient was determined
- Assay type: physicochemical
- Run Conditions: read-out: Log K
Assay Readout: logP
Reply: number alone, nothing else.

Form field logP, entry Cc1ncc([N+](=O)[O-])n1CC(O)CO (stereo unspecified) : -0.63

====

- Tested on: Rattus norvegicus
- Experiment Notes: The total 18 hr urinary excretion of unchanged compound reported as log (percent X 10) of the administered dose
- Run Conditions: in vivo
Assay Readout: Log BR
Write no unit; give the number alone.

Solved cases below.
# Compound, Observed
measured = [
    ("O=[N+]([O-])c1cncn1CCN1CCOCC1", 2.639),
    ("CCC(CC)C(O)Cn1c([N+](=O)[O-])cnc1C (stereo not drawn)", 2.561),
    ("Cn1c([N+](=O)[O-])cnc1C1CC1", 1.613),
]

# compound Cn1c([N+](=O)[O-])cnc1CO ; its Log BR = 2.513

Lab note: Cc1ncc([N+](=O)[O-])n1CC(=O)Nc1ncccn1 gave Log BR of 2.569

Noted for O=[N+]([O-])c1cnc(/C=C/c2ccc3c(c2)OCO3)n1CCO : its Log BR reads 1.529

For this compound ( Cn1c([N+](=O)[O-])cnc1C=O ), measured Log BR is 2.025
